# System: T1, CCX-CKR2 (RDC1), human (human, UniProt P25106 1-362)
# T1 construct: also called CCX-CR2; SDF1 receptor on MCF-7 cells
# T1 sequence (P25106 whole entry): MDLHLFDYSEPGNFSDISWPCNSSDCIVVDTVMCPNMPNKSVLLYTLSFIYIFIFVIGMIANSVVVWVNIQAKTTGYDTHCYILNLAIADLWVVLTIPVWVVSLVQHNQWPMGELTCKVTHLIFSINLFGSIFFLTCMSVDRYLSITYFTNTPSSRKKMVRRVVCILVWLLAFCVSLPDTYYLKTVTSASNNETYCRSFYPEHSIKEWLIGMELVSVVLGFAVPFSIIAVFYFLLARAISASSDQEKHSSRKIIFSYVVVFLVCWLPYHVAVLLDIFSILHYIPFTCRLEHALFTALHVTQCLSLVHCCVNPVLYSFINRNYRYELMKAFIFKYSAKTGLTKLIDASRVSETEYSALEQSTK
# Assay procedure: homologous competition with 125I I-TAC on MCF-7 cells, medium alone
Experimental endpoint: pIC50
One number for each entry, as −log10 of the molar value.

In: Tell me the measured pIC50 of human I-TAC (ligand, UniProt O14625 22-94, looked up, also called hI-TAC; CXCL11) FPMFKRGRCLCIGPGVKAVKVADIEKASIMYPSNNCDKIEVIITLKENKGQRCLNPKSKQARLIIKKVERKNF , please.
Out: 9.00
